# System: Danio rerio Tg(wt1b:EGFP) embryo, pronephros
# procedure.text: fraction of imaged embryos annotated as normal kidney; higher = less nephrotoxic; extreme values may be limits of the assay
# condition: 25 µM; exposure: 24-48 hpf
Counter-ions that a name gives are not always drawn.
Assign class by fraction of imaged embryos annotated as normal kidney: not lower than 0.8 means Condition met; lower than 0.8 means Condition not met.

- CO[C@@]1(NC(=O)C2SC(=C(C(N)=O)C(=O)O)S2)C(=O)N2C(C(=O)O)=C(CSc3nnnn3C)CS[C@@H]21 (some centres not stated) [Cefotetan]: Condition met
- COc1cc(-c2ccc(=O)[nH]n2)ccc1OC(F)F [Zardaverine]: Condition not met
- CCC1(c2ccccc2)NC(=O)N(C)C1=O (configuration not stated) [Mephenytoin]: Condition not met
- COc1cccc2c1C(=O)c1c(O)c3c(c(O)c1C2=O)C[C@@](O)(C(=O)CO)C[C@@H]3O[C@H]1C[C@H](N)[C@H](O)[C@H](C)O1 [Doxorubicin hydrochloride]: Condition not met
- Nc1ccc(S(=O)(=O)c2ccc(N)cc2)cc1 [Dapsone]: Condition not met
- O=C(COc1ccc(Cl)cc1)N1CCN(Cc2ccc3c(c2)OCO3)CC1 [Fipexide hydrochloride]: Condition not met
- CCCCNc1c(C(=O)OCC)c(C)nc2c1cnn2CC [Tracazolate hydrochloride]: Condition met
- CC(=O)Nc1ccc(O)cc1 [Acetaminophen]: Condition met
- NS(=O)(=O)c1cc(C2(O)NC(=O)c3ccccc32)ccc1Cl (configuration not stated) [Chlorthalidone]: Condition not met
- CCOC(=O)[C@H](CCc1ccccc1)N[C@H]1CCc2ccccc2N(CC(=O)O)C1=O [Benazepril hydrochloride]: Condition not met
- CN(C)CCCO[C@@H]1[C@H]2OC(C)(C)O[C@H]2O[C@@H]1[C@H](O)CO [Amiprilose hydrochloride]: Condition not met
- Nc1ncnc2c1ncn2[C@@H]1O[C@H](CO)[C@@H](O)[C@@H]1O [Vidarabine]: Condition not met
- O=C(O)CN(CCN(CC(=O)O)CC(=O)O)CCN(CC(=O)O)CC(=O)O [Pentetic acid]: Condition met
- NCCCC[C@H](N[C@@H](CCc1ccccc1)C(=O)O)C(=O)N1CCC[C@H]1C(=O)O [Lisinopril]: Condition met
- C1CCC(C(CC2CCCCN2)C2CCCCC2)CC1 (configuration not stated) [Perhexiline maleate]: Condition met
- CCCCOc1cc(C(=O)OCCN(CC)CC)ccc1N [Benoxinate hydrochloride]: Condition met
- CC(C(=O)O)c1ccc(C(=O)c2ccccc2)s1 (configuration not stated) [Tiaprofenic acid]: Condition not met

###

# System: Danio rerio Tg(wt1b:EGFP) embryo, pronephros
# procedure.text: pronephric angle neck segment to proximal convoluted tubule (mean of left and right), fold change vs DMSO control; higher = larger pronephric angle
# condition: 25 µM; exposure: 24-48 hpf
Counter-ions that a name gives are not always drawn.
Some compounds, each annotated with its measured pronephric angle neck segment.
experimental.endpoint: pronephric angle neck segment

• CC(C)NCC(O)COc1ccc(COCCOC(C)C)cc1 (configuration not stated) [Bisoprolol fumarate] = 0.999
• CN(N=O)C(=O)N[C@@H](C=O)[C@@H](O)[C@H](O)[C@H](O)CO [Streptozotocin] = 1.01
• O=C1c2c(O)cccc2Cc2cccc(O)c21 [Anthralin] = 1.06
• CCCCOc1cc(C(=O)NCCN(CC)CC)c2ccccc2n1 [Dibucaine] = 1.01
• CCCCc1cc2ccccc2c(OCCN(C)C)n1 [Dimethisoquin hydrochloride] = 0.991
• CC(N/C(=N\C#N)Nc1ccncc1)C(C)(C)C (configuration not stated) [Pinacidil] = 1.01
• CCCOc1cc(N)ccc1C(=O)OCCN(CC)CC [Propoxycaine hydrochloride] = 1.01
• COC(=O)[C@@H]1[C@H]2C[C@H]3c4[nH]c5ccccc5c4CCN3C[C@@H]2CC[C@@H]1O [Yohimbine hydrochloride] = 0.985
• C=C[C@H]1CN2CC[C@H]1C[C@@H]2[C@@H](O)c1ccnc2ccc(OC)cc12 [Quinidine hydrochloride monohydrate] = 1.01
• CN(C)[C@@H]1C(O)=C(C(N)=O)C(=O)[C@@]2(O)C(O)=C3C(=O)c4c(O)cccc4[C@@](C)(O)[C@H]3[C@H](O)[C@@H]12 [Oxytetracycline dihydrate] = 0.915
• CN(C)CCC=C1c2ccccc2CCc2ccccc21 [Amitryptiline hydrochloride] = 1.02
• CN1Cc2c(N)cccc2C(c2ccccc2)C1 (configuration not stated) [Nomifensine maleate] = 1.01
• C[C@]12CC[C@@H]3c4ccc(O)cc4CC[C@H]3[C@@H]1CCC2=O [Estrone] = 1.05
• COc1ccc([C@@H]2Sc3ccccc3N(CCN(C)C)C(=O)[C@@H]2OC(C)=O)cc1 [Diltiazem hydrochloride] = 1.21
• Cn1c(=O)c2c(ncn2CCO)n(C)c1=O [Etofylline] = 0.978
• O=C1c2c(O)ccc(O)c2C(=O)c2c(NCCNCCO)ccc(NCCNCCO)c21 [Mitoxantrone dihydrochloride] = 1.07
• CC(C)C(=O)Nc1ccc([N+](=O)[O-])c(C(F)(F)F)c1 [Flutamide] = 1.05

These data points were gathered from the supplement of paper PMC7366291.
